Biological target: hTRPM8 (Homo sapiens, UniProt Q7Z2W7)
Construct: expressed in transfected cells
Sequence (Q7Z2W7 whole entry): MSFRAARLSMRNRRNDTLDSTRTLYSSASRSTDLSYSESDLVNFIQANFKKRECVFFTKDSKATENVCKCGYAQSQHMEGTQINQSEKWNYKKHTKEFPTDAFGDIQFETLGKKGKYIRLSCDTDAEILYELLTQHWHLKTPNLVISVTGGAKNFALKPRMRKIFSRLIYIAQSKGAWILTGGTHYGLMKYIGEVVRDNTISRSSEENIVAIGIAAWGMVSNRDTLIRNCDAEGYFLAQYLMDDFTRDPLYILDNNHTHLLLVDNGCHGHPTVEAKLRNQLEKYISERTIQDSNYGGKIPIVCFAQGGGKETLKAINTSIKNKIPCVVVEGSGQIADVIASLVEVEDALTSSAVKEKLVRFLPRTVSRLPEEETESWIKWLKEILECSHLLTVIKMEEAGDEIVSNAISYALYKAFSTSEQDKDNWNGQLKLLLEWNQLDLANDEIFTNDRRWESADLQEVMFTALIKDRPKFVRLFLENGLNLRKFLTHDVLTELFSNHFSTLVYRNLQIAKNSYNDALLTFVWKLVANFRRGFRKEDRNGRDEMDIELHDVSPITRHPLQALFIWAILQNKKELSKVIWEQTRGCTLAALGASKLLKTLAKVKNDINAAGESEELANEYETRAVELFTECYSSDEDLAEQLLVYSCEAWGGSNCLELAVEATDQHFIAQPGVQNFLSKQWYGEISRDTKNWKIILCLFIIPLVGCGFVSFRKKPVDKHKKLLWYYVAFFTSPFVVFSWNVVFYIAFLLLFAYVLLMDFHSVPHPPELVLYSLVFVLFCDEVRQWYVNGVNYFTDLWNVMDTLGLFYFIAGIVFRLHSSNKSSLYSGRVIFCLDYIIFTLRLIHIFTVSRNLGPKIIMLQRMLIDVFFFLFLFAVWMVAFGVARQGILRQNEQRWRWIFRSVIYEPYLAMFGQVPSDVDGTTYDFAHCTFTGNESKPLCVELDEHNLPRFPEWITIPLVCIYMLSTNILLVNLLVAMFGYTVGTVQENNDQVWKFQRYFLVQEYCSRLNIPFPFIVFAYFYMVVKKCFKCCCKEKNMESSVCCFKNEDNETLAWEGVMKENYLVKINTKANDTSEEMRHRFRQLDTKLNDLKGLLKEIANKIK
Assay: hTRPM8 agonist assay in a mammalian cell line stably expressing hTRPM8
Type: cell-based
Conditions: Table 8; scaffold T8
pEC50: −log10 of the molar value.

smiles-str: CCN(Cc1cccs1)C(=O)/C=C/c1ccc2c(c1)OCO2
pEC50: < 9.00

====

Biological target: hTRPM8 (Homo sapiens)
Construct: expressed in transfected cells
Experiment: hTRPM8 agonist assay in a mammalian cell line stably expressing hTRPM8
Format: cell-based
Details: Table 7; scaffold T7, Ar phenyl vs thienyl
observation-type: EC50 (µM)

compound: O=C(COc1ccc(Br)cc1)N(Cc1cccs1)c1ccccn1 [drawing 234: 4-Br, 2-Pyridyl, Thienyl]
test-value: 2.27

compound: CCN(Cc1ccccc1)C(=O)COc1ccccc1 [drawing 234: H, Ethyl, Phenyl, reference compound]
test-value: 9.21

compound: O=C(COc1ccc(Br)cc1)N(Cc1ccccc1)c1ccccn1 [drawing 234: 4-Br, 2-Pyridyl, Phenyl, reference compound]
test-value: 15.6

====

Biological target: hTRPM8 (Homo sapiens, UniProt Q7Z2W7)
Construct: expressed in transfected cells
Experiment: hTRPM8 agonist assay in a mammalian cell line stably expressing hTRPM8
Format: cell-based
Conditions: Table 1; cell line stably expressing hTRPM8
Recorded EC50 for the following molecules
observation-type: EC50 (pM)

molecule: CCN(Cc1cccs1)C(=O)COc1ccc(C)cc1 [Example U1]
test-value: 7700
//
molecule: O=C(COc1ccc2c(c1)CCC2)N(Cc1cccs1)c1cn[nH]c1 [Example C1]
test-value: 17
//
molecule: O=C(COc1ccc2c(c1)CCC2)N(Cc1cccs1)c1cc[nH]n1 [Example A1]
test-value: 9
//
molecule: Cc1ccc(OCC(=O)N(Cc2cccs2)c2ccn[nH]2)cc1 [Example F1]
test-value: 205
//
molecule: Cc1c[nH]nc1N(Cc1cccs1)C(=O)COc1ccc2c(c1)CCC2 [Example B1]
test-value: 1

====

Target: hTRPM8 (Homo sapiens)
Construct: expressed in transfected cells
Assay: hTRPM8 agonist assay in a mammalian cell line stably expressing hTRPM8
Type: cell-based
Details: Table 1; EC50 ratio to WS-3
Rule: EC50 WS-3 Ratio below 500000 gives MET. Equal to or above 500000 gives NOT MET.

smiles-str: Cc1ccc(OCC(=O)N(Cc2cccs2)c2ccn[nH]2)cc1
label-class: MET
--
smiles-str: CCN(Cc1cccs1)C(=O)COc1ccc(C)cc1
label-class: MET
--
smiles-str: Cc1c[nH]nc1N(Cc1cccs1)C(=O)COc1ccc2c(c1)CCC2
label-class: NOT MET
--
smiles-str: O=C(COc1ccc2c(c1)CCC2)N(Cc1cccs1)c1cc[nH]n1
label-class: NOT MET

====

Molecular target: hTRPM8 (Homo sapiens, UniProt Q7Z2W7)
Construct: expressed in transfected cells
Test: hTRPM8 agonist assay in a mammalian cell line stably expressing hTRPM8
Format: cell-based
Settings: Table 7; scaffold T7, Ar phenyl vs thienyl
Method: A mammalian cell line derivative which stably expresses hTRPM8 was used in biological assays in association with testing the present compounds with cool-tasting or -feeling properties (Servant et al. US 2007/0259354 A1 and references cited therein). Typical compound concentrations tested were 100 μM, 50 μM, 10 μM, 1 μM, and 0.5 μM. The present compounds have shown strong activity as agonists of hTRPM8. Assay results for compounds are illustrated in Table 1 below. […]

compound: CCN(Cc1ccccc1)C(=O)COc1ccc(C)cc1 [drawing 234: 4-Me, Ethyl, Phenyl, reference compound]
system-tested: hTRPM8 (Homo sapiens, UniProt Q7Z2W7)
units-of-measure: nM
limit-operator: =
EC50: 776
//
compound: CCN(Cc1cccs1)C(=O)COc1ccc(C)cc1 [drawing 234: 4-Me, Ethyl, Thienyl]
system-tested: hTRPM8 (Homo sapiens, UniProt Q7Z2W7)
units-of-measure: nM
limit-operator: =
EC50: 6.9
//
compound: Cc1ccc(OCC(=O)N(C)Cc2cccs2)cc1 [drawing 234: 4-Me, Methyl, Thienyl]
system-tested: hTRPM8 (Homo sapiens, UniProt Q7Z2W7)
units-of-measure: nM
limit-operator: =
EC50: 369
//
compound: CCN(Cc1cccs1)C(=O)COc1ccccc1 [drawing 234: H, Ethyl, Thienyl]
system-tested: hTRPM8 (Homo sapiens, UniProt Q7Z2W7)
units-of-measure: nM
limit-operator: =
EC50: 1450
//
compound: Cc1ccc(OCC(=O)N(Cc2ccccc2)c2ccccn2)cc1 [drawing 234: 4-Me, 2-Pyridyl, Phenyl, reference compound]
system-tested: hTRPM8 (Homo sapiens, UniProt Q7Z2W7)
units-of-measure: nM
limit-operator: =
EC50: 4720
//
compound: O=C(COc1ccc(Cl)cc1)N(Cc1cccs1)c1ccccn1 [drawing 234: 4-Cl, 2-Pyridyl, Thienyl]
system-tested: hTRPM8 (Homo sapiens, UniProt Q7Z2W7)
units-of-measure: nM
limit-operator: =
EC50: 2320
//
compound: Cc1ccc(OCC(=O)N(Cc2cccs2)c2ccccn2)cc1 [drawing 234: 4-Me, 2-Pyridyl, Thienyl]
system-tested: hTRPM8 (Homo sapiens, UniProt Q7Z2W7)
units-of-measure: nM
limit-operator: =
EC50: 505
//
compound: Cc1ccc(OCC(=O)N(C)Cc2ccccc2)cc1 [drawing 234: 4-Me, Methyl, Phenyl, reference compound]
system-tested: hTRPM8 (Homo sapiens, UniProt Q7Z2W7)
units-of-measure: nM
limit-operator: >
EC50: 100000
